Recorded inhibition of growth at 10 µM by entry
# Tested on: LOX IMVI
# Assay name: Cytotoxicity against human LOXIMVI cells assessed as growth inhibition at 10 uM after 48 hrs by coulter counter analysis
# Format: functional
# Test context: read-out: GI
Please state the figure in %; there is no need to write the unit.

Please review the entries below; each comes with its answer.
O=C(CSc1nc2ccccc2c(=O)n1CCc1ccccc1)Nc1ccccc1C(=O)O :: 38
CCOc1ccc(NC(=O)CSc2nc3ccccc3c(=O)n2CCc2ccccc2)cc1 :: 11
O=C(CSc1nc2ccccc2c(=O)n1CCc1ccccc1)Nc1ccc(Cl)cc1 :: 23

In the following, a different molecule is considered.
# inhibition of growth at 10 µM lookup, item `Cc1ccc(NC(=O)CSc2nc3ccccc3c(=O)n2CCc2ccccc2)cc1`
14

====

// reported inhibition of growth at 10 µM per item
# Tested on: OVCAR-4
# Assay name: Cytotoxicity against human OVCAR4 cells assessed as growth inhibition at 10 uM after 48 hrs by coulter counter analysis
# Type: functional
# Test context: OVCAR-4, 48 h, read-out: GI

The cases that follow already have their inhibition of growth at 10 µM on record.
O=C(CSc1nc2ccccc2c(=O)n1CCc1ccccc1)Nc1ccccc1 :: < 10%
O=C(CSc1nc2ccccc2c(=O)n1CCc1ccccc1)Nc1ccc(F)cc1 :: < 10%
Cc1ccc(NC(=O)CSc2nc3ccccc3c(=O)n2CCc2ccccc2)cc1 :: < 10%
CC(=O)c1ccc(NC(=O)CSc2nc3ccccc3c(=O)n2CCc2ccccc2)cc1 :: 25%

Now turn to the next compound.
For the compound `O=C(CSc1nc2ccccc2c(=O)n1CCc1ccccc1)Nc1cc(Cl)ccc1C(=O)O` , what inhibition of growth at 10 µM is on record?
< 10%

====

# Test system: ACHN
# Assay name: Cytotoxicity against human ACHN cells assessed as growth inhibition at 10 uM after 48 hrs by coulter counter analysis
# Assay type: functional
# Test context: read-out: GI
Entries annotated with measured inhibition of growth at 10 µM

COc1cc(NC(=O)CCSc2nc3ccccc3c(=O)n2CCc2ccccc2)cc(OC)c1OC :: 21%
CCOc1ccc(NC(=O)CSc2nc3ccccc3c(=O)n2CCc2ccccc2)cc1 :: 12%

Returns the measured inhibition of growth at 10 µM for the input compound. Input: `COc1ccc(NC(=O)CSc2nc3ccccc3c(=O)n2CCc2ccccc2)cc1`
< 10%

Which inhibition of growth at 10 µM value belongs to `COc1cc(NC(=O)CSc2nc3ccccc3c(=O)n2CCc2ccccc2)cc(OC)c1OC` ?
> 100%

I am curious: what inhibition of growth at 10 µM value has been reported for `O=C(CSc1nc2ccccc2c(=O)n1CCc1ccccc1)Nc1ccccc1C(=O)O` ?
34%

Endpoint output: inhibition of growth at 10 µM of `O=C(CSc1nc2ccccc2c(=O)n1CCc1ccccc1)NCc1ccccc1` . Value?
38%

Consider the compound `O=C(CSc1nc2ccccc2c(=O)n1CCc1ccccc1)Nc1ccc(F)cc1` and give its measured inhibition of growth at 10 µM.
16%

Bench note: what inhibition of growth at 10 µM did `Cc1ccc(NC(=O)CSc2nc3ccccc3c(=O)n2CCc2ccccc2)cc1` show?
21%

Item `O=C(CSc1nc2ccccc2c(=O)n1CCc1ccccc1)Oc1ccc(Cl)cc1` has what recorded inhibition of growth at 10 µM?
< 10%

Which value of inhibition of growth at 10 µM has been reported for `NC(=O)CSc1nc2ccccc2c(=O)n1CCc1ccccc1` in the records?
34%

Entry `O=C(CSc1nc2ccccc2c(=O)n1CCc1ccccc1)Oc1ccccc1` has what inhibition of growth at 10 µM?
10%

Fill blank: measured inhibition of growth at 10 µM of the compound `COc1cc(OC(=O)CSc2nc3ccccc3c(=O)n2CCc2ccccc2)cc(OC)c1OC` is ____.
10%
